Every entry's value here was drawn from PubChem BioAssay (NCI).

test: NCI Yeast Anticancer Drug Screen. Data for the mlh1 rad18 strain (AID 175); conditions: S. cerevisiae mlh1 rad18 strain growth inhibition; at 5.0 µM (retest, dose inferred, filed as 0.5); active compounds read high
About 79,000 compounds went through this panel and 15% of them were active in at least one assay; those are over-represented in the sample as a whole.
Listed below: growth inhibition values for each entry.
Use % as the unit, but write only the number.

> print(dat)
                                   compound     endpoint.label  experimental.result
1  N#CC(C(=O)C(=O)Nc1ccc(Cl)c(Cl)c1)c1c(Cl)cccc1Cl (stereo not given)  growth inhibition                   -2

Query: Return reported growth inhibition. Input compound: "CCC(C)(C)c1cc(Br)c(NS(=O)(=O)c2ccc(NC(C)=O)cc2)c(Br)c1"
Result: 8

Query: Return reported growth inhibition. Input compound: "O=C(N/N=C/c1ccccc1[O-])c1ccccc1O.O=C(N/N=C/c1ccccc1[O-])c1ccccc1O.[Mn+2]"
Result: 40

Query: Return reported growth inhibition. Input compound: "Cc1sc(N=Nc2c(O)[nH]c3ccccc23)nc1-c1ccccc1"
Result: 11

Query: Return reported growth inhibition. Input compound: "Oc1ccc(Cl)cc1Cc1cc(Cl)cc(Cc2cc(Cl)ccc2O)c1O"
Result: 14
